Here the recorded apparent KD of MS2 coat protein is given for each entry.
System: MS2 coat protein
test-method-notes: apparent KD of MS2 coat protein; designed switch direction (-1 OFF switch, 1 ON switch): 1; higher = weaker reporter binding
experimental-context: input ligand: FMN 200 uM
recorded-metric: apparent KD of MS2 coat protein (nM)

{"columns": ["sequence-input", "test-target", "reading"],
 "data": [
  ["GGUCAGACUCACAUGAGGAUCACCCAUGUACCGGAAACGGCACAGGAUAUCUGUCCGAAAAGGUCAGAGAAGGGUGUACUGACC [Fiskers NG3ss - 53] (Eterna round: R96, puzzle: Same State NG 3)", "MS2 coat protein", 277],
  ["UAGUGAUUGCAAGGAUAUGCUAGUUUUUAUUUGUGUUUGAUAACAAACAUGAGGAUCACCCAUGUGCAGAAGGUGCAAGAUAUG [JR_SSNG2_Sub078] (Eterna round: R96, puzzle: Same State NG 2)", "MS2 coat protein", 193],
  ["AAUUAACAUGAGGAUCACCCAUGUCGUAUUAUGGGAGGAUAUACGUGGACCGUAGUCCGCGUAGAAGGCCUAAUUA [Mat - Same State 1 - Mod of JL - D21] (Eterna round: R96, puzzle: Same State 1)", "MS2 coat protein", 21],
  ["UAAUGUUUGCGAGGAUAUCGUUUAUUGAAGUUACGAGAAGGCGCUCUUCUUACAUGAGGAUCACCCAUGUCUGUUUUGCAUGAU [JR_SSNG1_Sub069] (Eterna round: R96, puzzle: Same State NG 1)", "MS2 coat protein", 44.4]
]}

----------
Here the recorded apparent KD of MS2 coat protein is given for each entry.
Tested on: MS2 coat protein
test-method-notes: apparent KD of MS2 coat protein; designed switch direction (-1 OFF switch, 1 ON switch): 1; higher = weaker reporter binding
experimental-context: Eterna round: R95; input ligand: none

{"columns": ["sequence-input", "apparent KD of MS2 coat protein [nM]"],
 "data": [
  ["UACAAUCUAUCUGAGGAUAUCAUGAAAAAAACAUGAGGAUCACCCAUGUGCAGGAAAACUGCAUAUGAGAAGGCAGAUAGAUUGU [salish99_SS2_r3_006] (puzzle: Same State 2)", 1650],
  ["AGUCCAGCCUGAGCUGGACAAAAGCAUGUACAUGAGGAUCACCCAUGUUCAUGUACAAGCUUUUUGCUCGUCAAAAG [Mat - hsa-mir-208a - Mod of JL - 67] (puzzle: Sensor for hsa-mir-208a)", 372],
  ["UUUAGUUGCGGGCAGGAUAUGUAUUAAAAUACAUGAGGAUCACCCAUGUGAGAUCAUAAAGAUCUACAGAAGGGCCAAUCGCGAC [Laonerce - 18] (puzzle: Same State 2)", 91.6]
]}

----------
Here the recorded apparent KD of MS2 coat protein is given for each entry.
Tested on: MS2 coat protein
test-method-notes: apparent KD of MS2 coat protein; designed switch direction (-1 OFF switch, 1 ON switch): -1; higher = weaker reporter binding
experimental-context: input ligand: FMN 200 uM
recorded-metric: apparent KD of MS2 coat protein

{"columns": ["sequence-input", "reading"],
 "data": [
  ["GUAAUGAUUGUGAGGAUAUUUCAUAGAUAGAUAUUAGAGAAGGUACAUGAGGAUCACCCAUGUGUGAUUAUACA [Brourd's EX4 #72] (Eterna round: R97, puzzle: Brourd's mod of Exclusion 4)", "97.3 nM"],
  ["AUAAUGUCAGGAUAUCAGUCGACUAGCUGCGGCUAGUCGACUGAGAAGGGACAUGAGGAUCACCCAUGUGUUUC [E4/14-A3] (Eterna round: R97, puzzle: Exclusion 4)", "475 nM"],
  ["AUGGGACAUGAGGAUCACCCAUGUCAGGAUAUGCUCUGAUGCGGCGUACGCCGUGCUAGCAGAAGGGACUACCU [EX1 C.19] (Eterna round: R97, puzzle: Exclusion 1)", "29 nM"],
  ["CGUUCCACAGGAUAUACAAAACGUAUCCCAGGGCUAACAGGACAUGAGGAUCACCCAUGUAGAAGGGUGGAACU [Eternabot (L1) Solution 36] (Eterna round: R97, puzzle: Exclusion 2)", "571 nM"],
  ["UAUCAGCAAGUGAGGAUAUAGAGAACGGUUGUUGGCUAGAAGGCACUUGAGGAUCACCCAAGUCGCAAAGUGGC [Mamausonbe] (Eterna round: R97, puzzle: Brourd's mod of Exclusion 4)", "134 nM"]
]}

# credit: the supplement of paper PMC9170038
